B1: wild-type N-terminal domain of major ampullate spidroin 1 (MaSp1) from Euprosthenops australis [Euprosthenops australis] / itself (parent)
chain: SHTTPWTNPGLAENFMNSFMQGLSSMPGFTASQLDDMSTIAQSMVQSIQSLAAQGRTSPNKLQALNMAFASSMAEIAASEEGGGSLSTKTSSIASAMSNAFLQTTGVVNQPFINEITQLVSMFAQAGMNDVSA

# Variants of: B1
# Assay remarks: high-resolution SEC
# Experimental conditions: with itself; read off a plot
Readout: Kd (nM)

Chain sequence: SHTTPWTNPGLAENFLNSFLQGLSSMPGFTASQLDDLSTIAQSLVQSIQSLAAQGRTSPNKLQALNMAFASSMAEIAASEEGGGSLSTKTSSIASAMSNAFLQTTGVVNQPFINEITQLVSMFAQAGMNDVSA [chain 1 M16L M20L M37L M44L]
Value unit: nM
Kd: 660

A: SHTTPWTNPGLAENFLNSFLQGLSSMPGFTASQLDDMSTIAQSMVQSIQSLAAQGRTSPNKLQALNMAFASSMAEIAASEEGGGSLSTKTSSIASAMSNAFLQTTGVVNQPFINEITQLVSMFAQAGMNDVSA [chain 1 M16L M20L]
B: SHTTPWTNPGLAENFLNSFLQGLSSMPGFTASQLDDLSTIAQSMVQSIQSLAAQGRTSPNKLQALNMAFASSMAEIAASEEGGGSLSTKTSSIASAMSNAFLQTTGVVNQPFINEITQLVSMFAQAGMNDVSA [chain 1 M16L M20L M37L]
**Query** // task: argmin of Kd over [ A , B ] Write down the label attached to your selection.
**Result** A
